Experimental target: human ether-à-go-go-related gene (hERG) potassium channel (human, UniProt Q12809);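 note: peak tail current of the secondary pulse compared with the same well before compound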
Sequence (Q12809 whole entry, looked up): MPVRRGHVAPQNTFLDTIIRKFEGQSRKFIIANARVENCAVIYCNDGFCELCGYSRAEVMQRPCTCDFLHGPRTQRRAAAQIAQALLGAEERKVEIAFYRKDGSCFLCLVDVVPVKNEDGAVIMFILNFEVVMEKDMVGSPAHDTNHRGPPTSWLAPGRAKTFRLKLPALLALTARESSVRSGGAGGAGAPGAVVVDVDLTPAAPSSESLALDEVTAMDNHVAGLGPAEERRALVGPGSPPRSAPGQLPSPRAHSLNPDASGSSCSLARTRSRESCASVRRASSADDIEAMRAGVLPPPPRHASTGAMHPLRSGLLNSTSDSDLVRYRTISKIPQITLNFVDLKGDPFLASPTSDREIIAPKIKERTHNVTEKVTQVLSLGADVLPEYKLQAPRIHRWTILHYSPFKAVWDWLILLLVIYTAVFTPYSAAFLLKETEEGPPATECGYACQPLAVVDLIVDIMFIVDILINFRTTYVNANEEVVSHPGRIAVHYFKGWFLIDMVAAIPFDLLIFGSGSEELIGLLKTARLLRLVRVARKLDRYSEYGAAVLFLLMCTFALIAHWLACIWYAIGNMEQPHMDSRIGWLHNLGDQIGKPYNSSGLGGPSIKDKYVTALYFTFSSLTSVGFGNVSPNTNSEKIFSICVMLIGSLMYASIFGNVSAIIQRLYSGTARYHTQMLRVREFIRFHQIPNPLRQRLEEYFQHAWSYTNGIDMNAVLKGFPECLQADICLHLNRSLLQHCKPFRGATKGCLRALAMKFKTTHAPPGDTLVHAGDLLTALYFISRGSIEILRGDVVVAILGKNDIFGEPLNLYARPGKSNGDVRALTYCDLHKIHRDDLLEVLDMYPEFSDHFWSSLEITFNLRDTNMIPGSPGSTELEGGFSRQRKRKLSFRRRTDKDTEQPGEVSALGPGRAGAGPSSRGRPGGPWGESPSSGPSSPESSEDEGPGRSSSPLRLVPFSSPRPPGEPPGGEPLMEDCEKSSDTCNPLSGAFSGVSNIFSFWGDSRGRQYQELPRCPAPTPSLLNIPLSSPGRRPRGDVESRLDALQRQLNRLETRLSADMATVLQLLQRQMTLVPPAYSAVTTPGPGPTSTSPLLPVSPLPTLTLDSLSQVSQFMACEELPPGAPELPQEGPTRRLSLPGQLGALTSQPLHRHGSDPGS
Method: primary screen, population patch clamp on CHO cells stably expressing hERG; higher = less effect of the substance
About 14,000 (4.5%) of roughly 310,000 compounds showed an effect of 50% or more. The effect is printed as a negative number. What follows is part of a selection rich in strong results, with near analogues and random picks from the rest.
Measure: hERG current change (%, negative = inhibition) at 10uM (%)
Write it as a number; the unit % goes unstated.

Give hERG current change (%, negative = inhibition) at 10uM for O=C(CSc1nc2ccccc2n1Cc1ccccc1)N/N=C/c1ccco1
-60.7

Give hERG current change (%, negative = inhibition) at 10uM for Cc1ccnc(NS(=O)(=O)c2ccc(NC(=O)Cc3ccccc3)cc2)n1
5.26

Give hERG current change (%, negative = inhibition) at 10uM for Cn1c(SCC(=O)N/N=C/C=C/c2ccco2)nc2ccccc21
-42.9

Give hERG current change (%, negative = inhibition) at 10uM for O=C(CSc1nnc(-c2ccco2)n1Cc1ccccc1)NCc1ccccc1
-51.8

Give hERG current change (%, negative = inhibition) at 10uM for COCCn1c(SCC(=O)NCc2ccccc2)nnc1-c1ccco1
5.7

Give hERG current change (%, negative = inhibition) at 10uM for NC(=O)C1CCCN(CC(=O)Nc2ccccc2C(=O)NC2CC2)C1 (centres unmarked)
-10.7

Give hERG current change (%, negative = inhibition) at 10uM for O=C(CSc1nnc(-c2ccco2)n1Cc1ccco1)NCc1ccccc1
-50.8

Give hERG current change (%, negative = inhibition) at 10uM for CC(C(=O)N1CCc2ccccc21)N1CCN(S(=O)(=O)c2cccs2)CC1 (centres unmarked)
-28.8

Give hERG current change (%, negative = inhibition) at 10uM for Cc1cc(NC(=O)CSc2nnc(-c3ccco3)n2Cc2ccco2)no1
-24.7

Give hERG current change (%, negative = inhibition) at 10uM for O=C(Nc1nnc(COc2ccc(Cl)cc2)s1)c1cccs1
-6.91

Give hERG current change (%, negative = inhibition) at 10uM for O=C1c2ccccc2C(=O)N1CCc1nn[nH]n1
17

Give hERG current change (%, negative = inhibition) at 10uM for Cc1ccc(/C=N/NC(=O)CSc2nc3ccccc3n2Cc2ccccc2)o1
-33.9

Give hERG current change (%, negative = inhibition) at 10uM for COc1cc(C(=O)O)cc(NC(=O)c2cccs2)c1OC
13

Give hERG current change (%, negative = inhibition) at 10uM for COc1ccccc1C(=O)NCC(c1cccs1)N1CCc2ccccc21 (centres unmarked)
1.26

Give hERG current change (%, negative = inhibition) at 10uM for O=[N+]([O-])c1cccnc1Sc1ccc(Cl)cc1
-11

Give hERG current change (%, negative = inhibition) at 10uM for CC1(C)CC(c2csc(N)n2)CCO1 (centres unmarked)
2.95

Give hERG current change (%, negative = inhibition) at 10uM for O=C(N/N=C/c1ccc2c(c1)OCO2)c1ccc(Cl)cc1Cl
20.3

Give hERG current change (%, negative = inhibition) at 10uM for Fc1ccc(-c2csc(/C=C/c3ccc4c(c3)OCO4)n2)cc1
13.2

Give hERG current change (%, negative = inhibition) at 10uM for COc1ccc(C(=O)N/C(=C\c2ccc3c(c2)OCO3)C(=O)NCCc2nc3ccccc3[nH]2)cc1
-39.4

Give hERG current change (%, negative = inhibition) at 10uM for O=C(c1cccc(S(=O)(=O)Nc2ccccc2Cl)c1)N1CCC1
-0.443

Give hERG current change (%, negative = inhibition) at 10uM for O=C(CSc1nnc(-c2ccco2)n1Cc1ccco1)Nc1ccccc1
-70.7

Give hERG current change (%, negative = inhibition) at 10uM for Cc1ccc(/C=N/NC(=O)CSc2nc3ccccc3n2Cc2ccc(Cl)cc2)o1
-16.2

Give hERG current change (%, negative = inhibition) at 10uM for O=C(CSc1nnc(-c2ccco2)n1Cc1ccccc1)c1ccccc1
-18.4

Give hERG current change (%, negative = inhibition) at 10uM for Cn1c(SCC(=O)N/N=C/c2ccco2)nc2ccccc21
-2.38

Give hERG current change (%, negative = inhibition) at 10uM for Cc1ccc(Cn2c(SCC(=O)N/N=C/c3ccc(C)o3)nc3ccccc32)cc1
-61.1

Give hERG current change (%, negative = inhibition) at 10uM for CCOC(=O)N1CCN(S(=O)(=O)/C=C/c2ccccc2)CC1
-17.5

Give hERG current change (%, negative = inhibition) at 10uM for C=CCOCCN(CCOCC=C)C1=NS(=O)(=O)c2ccccc21
12.5

Give hERG current change (%, negative = inhibition) at 10uM for O=C(CN1CCN(Cc2ccccc2)CC1)NC(=O)NC1CCCCC1
-46.3

Give hERG current change (%, negative = inhibition) at 10uM for CCn1c(SCC(=O)N/N=C/C=C\c2ccco2)nc2ccccc21
-9.42

Give hERG current change (%, negative = inhibition) at 10uM for COC(=O)CCNCCSc1nnc(-c2ccco2)n1Cc1ccccc1.O=C(O)C(=O)O
-64.5

Give hERG current change (%, negative = inhibition) at 10uM for O=C(CN1CCN(C/C=C/c2ccccc2)CC1)NC(=O)NC1CCCCC1
-74.8

Give hERG current change (%, negative = inhibition) at 10uM for O=C(NCc1ccc2c(c1)OCO2)c1ccncc1
-12.6

Give hERG current change (%, negative = inhibition) at 10uM for Cc1cc(C)c(S(=O)(=O)Nc2ncn[nH]2)cc1C
42.8

Give hERG current change (%, negative = inhibition) at 10uM for COc1ccc(S(=O)(=O)N2CCC(C(=O)NC3(C)CCS(=O)(=O)C3)CC2)cc1OC (centres unmarked)
7.87

Give hERG current change (%, negative = inhibition) at 10uM for O=C(Nc1cccc(C(=O)O)c1)/C(=C\c1ccc2c(c1)OCO2)NC(=O)c1ccccc1Cl
3.5

Give hERG current change (%, negative = inhibition) at 10uM for O=C1CC(C(=O)NC2CCCCC2)C2(CCCCC2)O1 (centres unmarked)
-1.23

Give hERG current change (%, negative = inhibition) at 10uM for CC(C)(C)NC(=O)NCCc1ccccc1
11

Give hERG current change (%, negative = inhibition) at 10uM for O=C(CN1C(=O)NC2(CCCC2)C1=O)OCc1ccc(Cl)cc1Cl
-20.9

Give hERG current change (%, negative = inhibition) at 10uM for Cc1cc(NC(=O)c2c(-c3ccccc3Cl)noc2C)no1
5.88

Give hERG current change (%, negative = inhibition) at 10uM for O=C(NCCc1ccco1)C(=O)NCC1CCCN1S(=O)(=O)c1ccccc1 (centres unmarked)
-33.5

Give hERG current change (%, negative = inhibition) at 10uM for O=C(CSCc1c(F)cccc1Cl)Nc1ccccc1C(=O)N1CCOCC1
5.4

---

Please respond with reported hERG current change (%, negative = inhibition) at 10uM for every item in the list.
Experimental target: human ether-à-go-go-related gene (hERG) potassium channel (human, UniProt Q12809);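 note: peak tail current of the secondary pulse compared with the same well before compound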
Method: primary screen, population patch clamp on CHO cells stably expressing hERG; higher = less effect of the substance
In all, about 310,000 compounds went through this assay and about 14,000 (4.5%) showed an effect of 50% or more. The effect is printed as a negative number. The list comes from a sample in which strong results are over-represented; it also holds close analogues and randomly drawn compounds.
Field note: include the unit after the figure.

Give hERG current change (%, negative = inhibition) at 10uM for CCOc1cccc(-c2nn3c(-c4cc(C)[nH]n4)nnc3s2)c1
-58.2%

Give hERG current change (%, negative = inhibition) at 10uM for O=C(Nc1cccc(NC(=O)c2ccccc2Cl)c1)c1ccc([N+](=O)[O-])o1
-16.4%

Give hERG current change (%, negative = inhibition) at 10uM for CCOC(=O)CSc1nc2cc(C(=O)NCC3CCCO3)ccc2c(=O)n1Cc1ccco1 (stereo not shown)
-39.3%

Give hERG current change (%, negative = inhibition) at 10uM for COc1ccc(NC(=O)CSc2nnc(-c3ccoc3C)n2CCc2ccccc2)cc1
-54.3%

Give hERG current change (%, negative = inhibition) at 10uM for Cc1cc(NC(=O)CSc2nnc(-c3ccco3)n2Cc2ccccc2)no1
-44.3%

Give hERG current change (%, negative = inhibition) at 10uM for CCOc1cccc(-c2nn3c(-c4ccco4)nnc3s2)c1
-49.4%

Give hERG current change (%, negative = inhibition) at 10uM for CCOCCNC(=O)c1ccccc1C(=O)NCCOCC
-11.1%

Give hERG current change (%, negative = inhibition) at 10uM for COc1ccc(NC(=O)CCNS(=O)(=O)c2cc(Br)cnc2N)c(OC)c1
8.51%

Give hERG current change (%, negative = inhibition) at 10uM for C=CCn1c(SCC(=O)OCC)nc2cc(C(=O)NCc3ccco3)ccc2c1=O
-17.6%

Give hERG current change (%, negative = inhibition) at 10uM for O=C1CC(NS(=O)(=O)c2ccc([N+](=O)[O-])cc2)CN1c1ccc2c(c1)OCCO2 (stereo not shown)
-1.64%
